Would you kindly list IC50 for each of these compounds?
target or test system: KLK1 (Homo sapiens)
Sequence (P06870 25-262): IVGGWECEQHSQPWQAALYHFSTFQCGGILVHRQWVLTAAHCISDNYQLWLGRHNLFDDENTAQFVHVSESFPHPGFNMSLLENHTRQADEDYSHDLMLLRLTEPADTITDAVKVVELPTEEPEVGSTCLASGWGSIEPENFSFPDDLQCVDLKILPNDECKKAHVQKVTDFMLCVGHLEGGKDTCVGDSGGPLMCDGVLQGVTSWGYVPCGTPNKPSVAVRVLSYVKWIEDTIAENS

The recorded IC50 for Cc1c(OCC23COC(CNc4cccc5c(N)nccc45)(C2)C3)ccc2nccn12 [Example 6626] is 1 to 3 µM

Consider Clc1cccc(NCC23CC(COc4ccn5ccnc5c4)(CCO2)C3)c1 [Example 10919] . Its measured IC50 is > 100 µM

Noted for Cn1ccc(OCC23CC(CNc4cccc5c(N)nccc45)(C2)C3)cc1=O [Example 1019] : its IC50 reads 3 to 10 µM

Entry Cn1ccc(OCC23CN(CCCc4ccccc4)C(CNc4cccc5c(N)nccc45)(C2)C3)cc1=O [Example 12019] ; IC50 = 1 to 3 µM

Value source: patent US20240327412A1
